Tested on: EBC-1
Test: relative viability (nuclei count vs DMSO), 5 days (fraction); higher = more cells survive
Details: first compound 8 µM
Decision: relative viability beneath 0.2 gives t; relative viability meeting or exceeding 0.2 gives f.

[[record]]
compound = "O=c1cc(-c2cccc3c2Sc2ccccc2S3)oc(N2CCOCC2)c1 + COc1cc2c(Oc3ccc(NC(=O)C4(C(=O)Nc5ccc(F)cc5)CC4)cc3F)ccnc2cc1OCCCN1CCOCC1 [Foretinib] (partner 0.25 µM)"
assigned_label = "t"

[[record]]
compound = "O=c1cc(-c2cccc3c2Sc2ccccc2S3)oc(N2CCOCC2)c1 + C[C@]1(O)C[C@@H](c2nc(-c3ccc4ccc(-c5ccccc5)nc4c3)c3c(N)nccn32)C1 [Linsitinib] (partner 1 µM)"
assigned_label = "f"

[[record]]
compound = "O=c1cc(-c2cccc3c2Sc2ccccc2S3)oc(N2CCOCC2)c1 + O=C(c1cc(Cc2n[nH]c(=O)c3ccccc23)ccc1F)N1CCN(C(=O)C2CC2)CC1 [Olaparib] (partner 8 µM)"
assigned_label = "f"


Let's switch to this compound now.
Strictly below 0.2 in relative viability? O=c1cc(-c2cccc3c2Sc2ccccc2S3)oc(N2CCOCC2)c1 + CC1(C)CCC(c2ccc(Cl)cc2)=C(CN2CCN(c3ccc(C(=O)NS(=O)(=O)c4ccc(N[C@H](CCN5CCOCC5)CSc5ccccc5)c(S(=O)(=O)C(F)(F)F)c4)cc3)CC2)C1 [Navitoclax] (partner 0.5 µM)
f
